Test system: HCC-44
METHOD_DESCRIPTION: relative viability (nuclei count vs DMSO), 5 days (fraction); higher = more cells survive
COND: first compound 0.6325 µM
For each entry below, report its relative viability value.
Give bare numbers.

Report relative viability for each item below.
1. Cc1csc(=NC2CCCCC2)n1/N=C/c1ccc(O)c(O)c1O [MIM1] + Nc1ncn([C@H]2C[C@H](O)[C@@H](CO)O2)c(=O)n1 [Decitabine] (partner 2 µM)
2. Cc1csc(=NC2CCCCC2)n1/N=C/c1ccc(O)c(O)c1O [MIM1] + O=C(CCCCCCC(=O)Nc1ccccc1)NO [Vorinostat] (partner 1 µM)
3. CN1CCN(CCOc2cc(OC3CCOCC3)c3c(Nc4c(Cl)ccc5c4OCO5)ncnc3c2)CC1 [Saracatinib] + CC(=O)Nc1cccc(-n2c(=O)n(C3CC3)c(=O)c3c(Nc4ccc(I)cc4F)n(C)c(=O)c(C)c32)c1 [Trametinib] (partner 0.02 µM)

Reply text:
1: 0.85; 2: 1.1; 3: 1.18

###

System: LCLC-103H
METHOD_DESCRIPTION: relative viability (nuclei count vs DMSO), 5 days (fraction); higher = more cells survive
COND: first compound 0.02 µM
MEASURED_QUANTITY: relative viability
One number for each entry.

Below, each entry is followed by its recorded relative viability result.
CN1CCN(CCOc2cc(OC3CCOCC3)c3c(Nc4c(Cl)ccc5c4OCO5)ncnc3c2)CC1 [Saracatinib] + Cc1nc(Nc2ncc(C(=O)Nc3c(C)cccc3Cl)s2)cc(N2CCN(CCO)CC2)n1 [Dasatinib] (partner 0.075 µM) | 0.475
CCNC(=O)c1noc(-c2cc(C(C)C)c(O)cc2O)c1-c1ccc(CN2CCOCC2)cc1 [Luminespib] + C[C@@H](Oc1cc(-c2cnn(C3CCNCC3)c2)cnc1N)c1c(Cl)ccc(F)c1Cl [Crizotinib] (partner 1 µM) | 0.908
CN1CCN(CCOc2cc(OC3CCOCC3)c3c(Nc4c(Cl)ccc5c4OCO5)ncnc3c2)CC1 [Saracatinib] + O=C(c1cc(Cc2n[nH]c(=O)c3ccccc23)ccc1F)N1CCN(C(=O)C2CC2)CC1 [Olaparib] (partner 8 µM) | 0.796

In the following, a different molecule is considered.
Quick note, relative viability for CCNC(=O)c1noc(-c2cc(C(C)C)c(O)cc2O)c1-c1ccc(CN2CCOCC2)cc1 [Luminespib] + Cc1nc(NC(=O)N2CCC[C@H]2C(N)=O)sc1-c1ccnc(C(C)(C)C(F)(F)F)c1 [Alpelisib] (partner 2 µM) landed at 0.85

###

Test system: NCI-H1395
METHOD_DESCRIPTION: relative viability (nuclei count vs DMSO), 5 days (fraction); higher = more cells survive
COND: first compound 0.002 µM
For each entry below, report its relative viability value.
Numbers only.

CCNC(=O)c1noc(-c2cc(C(C)C)c(O)cc2O)c1-c1ccc(CN2CCOCC2)cc1 [Luminespib] + N=C(N)NC(=N)NCCc1ccccc1 [Phenformin] (partner 250 µM) | 0.448

Report relative viability for each item below.
1. CCNC(=O)c1noc(-c2cc(C(C)C)c(O)cc2O)c1-c1ccc(CN2CCOCC2)cc1 [Luminespib] + CC1(C)CCC(c2ccc(Cl)cc2)=C(CN2CCN(c3ccc(C(=O)NS(=O)(=O)c4ccc(N[C@H](CCN5CCOCC5)CSc5ccccc5)c(S(=O)(=O)C(F)(F)F)c4)cc3)CC2)C1 [Navitoclax] (partner 0.5 µM)
2. CCNC(=O)c1noc(-c2cc(C(C)C)c(O)cc2O)c1-c1ccc(CN2CCOCC2)cc1 [Luminespib] + Cc1nc(Nc2ncc(C(=O)Nc3c(C)cccc3Cl)s2)cc(N2CCN(CCO)CC2)n1 [Dasatinib] (partner 0.075 µM)
3. CCNC(=O)c1noc(-c2cc(C(C)C)c(O)cc2O)c1-c1ccc(CN2CCOCC2)cc1 [Luminespib] + O=C(c1cc(Cc2n[nH]c(=O)c3ccccc23)ccc1F)N1CCN(C(=O)C2CC2)CC1 [Olaparib] (partner 8 µM)

Reply text:
1.42
0.418
0.465
